# test.name: Pharmacokinetics in Rats
# Format: in vivo
# condition.label: Sprague-Dawley (SD), rat; IV 0.25 mg/kg, non-fasted male SD rats, plasma B-1
property.name: half-life

Entry O=C1c2c(O)c(=O)ccn2N([C@@H]2c3ccccc3[Se]Cc3c2ccc(F)c3F)[C@@H]2COCCN12 ; half-life = 4 h
